Recorded IC50, one value per entry.
# target-or-system: KRAS WT (Homo sapiens, UniProt P01116+P62937)
# Sequence (P01116 1-169 isoform P01116-2 limits assumed): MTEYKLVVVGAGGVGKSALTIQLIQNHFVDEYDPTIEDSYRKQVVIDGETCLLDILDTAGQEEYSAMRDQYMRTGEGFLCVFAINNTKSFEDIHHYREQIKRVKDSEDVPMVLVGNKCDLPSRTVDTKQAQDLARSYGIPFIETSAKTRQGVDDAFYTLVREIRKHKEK
# Sequence (P62937 whole entry): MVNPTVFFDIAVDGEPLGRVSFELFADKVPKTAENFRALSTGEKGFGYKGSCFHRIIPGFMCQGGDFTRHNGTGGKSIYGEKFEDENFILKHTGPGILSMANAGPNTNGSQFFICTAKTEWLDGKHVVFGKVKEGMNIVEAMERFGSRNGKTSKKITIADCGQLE
# assay-comment: Disruption of BRAF RBD interaction with Ras (FRET / MOA assay, with Cyclophilin A)
# Format: biochemical
# reported-conditions: KRAS WT; read-out: KRAS WT FRET data IC50

molecule: CCn1c(-c2cccnc2[C@H](C)OC)c2c3cc(ccc31)-c1csc(n1)C[C@H](NC(=O)[C@H](C(C)C)N(C)C(=O)N1CCCC1)C(=O)N1CCC[C@H](N1)C(=O)OCC(C)(C)C2 (atropisomer, axis not shown)
target-or-system: KRAS WT (Homo sapiens, UniProt P01116+P62937)
IC50: 10 to 100 nM

(Q) Find IC50 (KRAS WT (Homo sapiens, UniProt P01116+P62937)) for the entry CCn1c(-c2cccnc2[C@H](C)OC)c2c3cc(ccc31)-c1csc(n1)C[C@H](NC(=O)[C@H](C(C)C)N(C)C(=O)N1CCCC13COC3)C(=O)N1CCC[C@H](N1)C(=O)OCC(C)(C)C2 (atropisomer, axis not shown)
(A) 10 to 100 nM

---

IC50: recorded values
# target-or-system: KRAS G12D (Homo sapiens, UniProt P01116+P62937, G12D)
# Sequence (P01116 1-169 isoform P01116-2 G12D limits assumed, one chain of several): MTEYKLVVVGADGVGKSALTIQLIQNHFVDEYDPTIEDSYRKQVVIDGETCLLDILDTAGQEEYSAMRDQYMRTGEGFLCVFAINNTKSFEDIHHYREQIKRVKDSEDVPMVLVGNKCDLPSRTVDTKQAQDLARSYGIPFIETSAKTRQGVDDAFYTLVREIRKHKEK
# assay-comment: Disruption of BRAF RBD interaction with Ras (FRET / MOA assay, with Cyclophilin A)
# Assay type: biochemical
# reported-conditions: read-out: KRAS G12D FRET data, IC50

Reference set, count: 3
molecule: CCn1c(-c2cccnc2[C@H](C)OC)c2c3cc(ccc31)-c1csc(n1)C[C@H](NC(=O)[C@H](C(C)C)N(C)C(=O)[C@@H]1CCN(C)[C@@H]1c1ccccc1)C(=O)N1CCC[C@H](N1)C(=O)OCC(C)(C)C2
endpoint-value: 1000 to 10000 nM
--
molecule: CCn1c(-c2cccnc2[C@H](C)OC)c2c3cc(ccc31)-c1csc(n1)C[C@H](NC(=O)[C@H](C(C)C)N(C)C(=O)N1CCC(C(=O)C(F)(F)F)CC1)C(=O)N1CCC[C@H](N1)C(=O)OCC(C)(C)C2
endpoint-value: 100 to 1000 nM
--
molecule: C=CC(=O)N1CCC(C(=O)N(C)[C@H](C(=O)N[C@H]2Cc3cc(O)cc(c3)-c3ccc4c(c3)c(c(-c3ccccc3CN(C)C)n4CC)CC(C)(C)COC(=O)[C@@H]3CCCN(N3)C2=O)C(C)C)CC1
endpoint-value: > 10000 nM

// switching to the query molecule
(Q) Suppose we examine the molecule C=CC(=O)N1CC[C@H](C(=O)N(C)[C@H](C(=O)N[C@H]2Cc3cc(OC(=O)CCC(=O)O)cc(c3)-c3ccc4c(c3)c(c(-c3ccccc3CCOC)n4CC)CC(C)(C)COC(=O)[C@@H]3CCCN(N3)C2=O)C(C)C)C1 ; what IC50 value has been reported?
(A) > 10000 nM

---

# target-or-system: KRAS G12V (Homo sapiens, UniProt P01116+P62937, G12V)
# Sequence (P01116 1-169 isoform P01116-2 G12V limits assumed): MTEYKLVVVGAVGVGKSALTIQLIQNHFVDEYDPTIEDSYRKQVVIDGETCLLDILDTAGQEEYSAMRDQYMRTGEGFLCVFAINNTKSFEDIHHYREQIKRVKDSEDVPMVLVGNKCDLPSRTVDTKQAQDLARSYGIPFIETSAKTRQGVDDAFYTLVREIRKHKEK
# Sequence (P62937 whole entry): as the sequence (P62937 whole entry) above
# assay-comment: Disruption of BRAF RBD interaction with Ras (FRET / MOA assay, with Cyclophilin A)
# Format: biochemical
# reported-conditions: KRAS G12V FRET data IC50, KRAS G12V
# Description: This protocol may also be executed substituting other Ras proteins or nucleotides. The purpose of this biochemical assay was to measure the ability of test compounds to facilitate ternary complex formation between a nucleotide-loaded K-Ras isoform and Cyclophilin A; the resulting ternary complex disrupts binding to a BRAF^RBD construct, inhibiting K-Ras signaling through a RAF effector. Data is reported as IC50 values. […]
Catalogue of IC50 readings, one per entry.

compound: CCn1c(-c2cccnc2[C@H](C)OC)c2c3cc(ccc31)-c1csc(n1)C[C@H](NC(=O)[C@H](C(C)C)N(C)C(=O)N1CCOC[C@@H]1CN(C)C)C(=O)N1CCC[C@H](N1)C(=O)OCC(C)(C)C2
target-or-system: KRAS G12V (Homo sapiens, UniProt P01116+P62937, G12V)
IC50: 1000 to 10000 nM

(Q) I'd like to know its IC50. The compound in question is CCn1c(-c2cccnc2[C@H](C)OC)c2c3cc(ccc31)-c1csc(n1)C[C@H](NC(=O)[C@H](C(C)C)N(C)C(=O)N1CCC(N(C)C)CC1)C(=O)N1CCC[C@H](N1)C(=O)OCC(C)(C)C2 (atropisomer, axis not shown)
(A) 100 to 1000 nM

Entry source: patent US20230233569A1
